Here, each record is paired with measured % Kill data.
- System: HEK293 (293) cells
- protocol: In vitro cell viability (cell kill) assay, CCK8
- Format: cell-based, human
- run_parameters: 293; Table 11; 3 days
Give the value in % but do not write % after it.

Known results for molecules:
H1H6803P-DM1 (conjugate) VH: EVQLVESGGGVVRPGGSLRLSCAASGFKFDDYGMTWVRHVPGKGLEWVSGINWNGGRTGYTDSVKGRFTISRDNAKNSLYLQMNSLRAEDTALYHCAGARRDAFDIWGQGTMVTVSS VL: DIQMTQSPSSLSASIGDRVTITCRASQNIIKYLNWYQQNAGKAPKLLIYTASSLQSGVPSRFSGSGSGTDFTLTISSLQPEDFATYYCQQSSSSPYTFGQGTKLEIK | 7
H1H6782P-DM1: anti-PRLR antibody H1H6782P conjugated to DM1 through an SMCC linker (conjugate) VH: EVQLVESGGGLVQPGRSLRLSCAASGFTFDDYAMHWVRQAPGKGLEWVSGIIWNSGHIGYGDSVKGRFTISRDNAKKSLYLQMNSLRAEDTALYYCARDSGRYQSYFDYWGQGTLVTVSS VL: DIQMTQSPSTLSASVGDRVTITCRASHIISSWLAWYQQKPGKAPKVLIFKASSLESGVPSRFSGSGSGTEFTLTISSLQPDDFATYYCQQYNTYSRTFGQGTKVEIK | 86

INPUT: Supply % Kill value. Item: H1H6958N2-DM1: anti-PRLR antibody H1H6958N2 conjugated to the maytansinoid DM1 through an SMCC linker (conjugate) VH: QVQLVESGGGVVQPGRSLRLSCGASGFTFRNYGMQWVRQGPGKGLEWVTLISFDGNDKYYADSVKGRFTISRDNSKNTLFLQMNSLRTEDTAVYYCARGGDFDYWGQGTLVTVSS VL: DIQMTQSPSSLSASVGDRVTITCRASQDIRKDLGWYQQKPGKAPKRLIYAASSLHSGVPSRFSGSGSGTEFTLTISSLQPEDFATYYCLQHNSYPMYTFGQGTKLEIK
OUTPUT: 98
